# TGI per record follows
System: UACC-62 melanoma
Assay: NCI tumour cell line growth inhibition, 48 h

Reference set, count: 6
Consider the compound O=C(c1ccccc1)c1ccc(N2C(=O)/C(=C/c3ccccc3S)N=C2c2ccccc2)c(N2C(=O)/C(=C/c3ccccc3S)N=C2c2ccccc2)c1 and give its recorded TGI.
> 100 µM

Consider the compound COC1(OC)CCN(Cc2ccccc2)C1=O and give its recorded TGI.
26.1 µM

Consider the compound N#CCCC(C#N)(C#N)CCC#N and give its recorded TGI.
> 100 µM

Consider the compound Cc1c2c(n3c(nc4ccccc43)c1C#N)N(c1ccc(F)cc1)CC2 and give its recorded TGI.
> 100 µM

Consider the compound OC1C2CCCCN2C[C@@H](O)[C@H]1O (stereo partly specified) and give its recorded TGI.
> 100 µM

Consider the compound Cc1cn(CC(=S)NCCc2c[nH]c3ccccc23)c(=O)[nH]c1=O and give its recorded TGI.
> 100 µM

---
Consider the compound NC(CCc1nc(-c2cccc([N+](=O)[O-])c2)cs1)C(=O)O (stereo unspecified) and give its recorded TGI.
> 100 µM

Consider the compound COc1ccc(/C(C)=C2\CCCN(Cc3ccccc3)C2)cc1 and give its recorded TGI.
57.9 µM

Consider the compound NC(=O)c1c[nH]c2ncnc(N)c12 and give its recorded TGI.
> 100 µM

Consider the compound COP12(OC)NC(=O)OC1(C(F)(F)F)c1ccccc1O2 (stereo unspecified) and give its recorded TGI.
> 100 µM

Consider the compound CC1(C=O)CC(CCc2ccccc2)NC1Cc1ccc(O)cc1 (stereo unspecified) and give its recorded TGI.
30.3 µM

###

Tested on: SF-295 CNS
Experiment: NCI tumour cell line growth inhibition, 48 h; in the data active = GI50 below about 0.43 µM; inactive = the rest
Log the outcome using a class from active, inactive

Field: example entries. Status: answers known.
How was CC[C@]12C=CCN3CC[C@@]4(c5ccc(OC)cc5N(C)[C@H]4[C@@](O)(C(=O)OC)[C@@H]1OC(=O)CCC(=O)O[C@H]1CC[C@H]4[C@@H]5CCC6=CC(=O)CC[C@@H]6[C@H]5CC[C@]14C)[C@@H]32 classified in this test?
inactive

How was NC(=O)c1c[nH]c2ncnc(N)c12 classified in this test?
inactive

---
How was COc1cc2c(Nc3ccc(-c4ccc(N)cc4)cc3)ncnc2c(OC)c1OC classified in this test?
inactive

How was CS(=O)(=O)Nc1cc(-c2ccc3ncc(C#N)c(Nc4ccc(F)c(Cl)c4)c3c2)cnc1Cl classified in this test?
active

How was COc1cc(/C=C2\CC3C4CCC5=CC(=O)CC[C@]5(C)C4CC[C@]3(C)C2=O)ccc1OCCN1CCCC1 (stereo partly drawn) classified in this test?
inactive

How was COc1cccc(C(=O)NNc2nc(Cl)nc(N3CCN(C(c4ccccc4)c4ccccc4)CC3)n2)c1 classified in this test?
inactive

How was NS(=O)(=O)c1ccc(N=Nc2c(O)[nH]c3ccc(C(=O)NCCCn4ccnc4)cc23)cc1 classified in this test?
inactive

How was CCCCCCCCCN=C(N)c1ccc(N2CCN(c3ccc(C(N)=NCCCCCCCCC)cc3)CC2)cc1 classified in this test?
inactive

###

Tested on: UACC-62 melanoma
Assay: NCI tumour cell line growth inhibition, 48 h
# TGI per record follows
Respond with the bare value in µM.

Consider the molecule CC(C)=CCC/C(C)=C/Cc1c2c(c3oc(-c4ccc(O)c(O)c4)c(O)c(=O)c3c1O)C=CC(C)(C)O2 and give its recorded TGI.
12.4

Consider the molecule O=C(/C=C(/C=C/c1cccc2[nH]ccc12)OB(F)F)/C=C/c1cccc2[nH]ccc12 and give its recorded TGI.
2.97
